The following compounds are listed with their measured inhibition at 100 µg/mL values.
# target_of_assay: α-amylase (Sus scrofa)
# Sequence (P00690 16-511): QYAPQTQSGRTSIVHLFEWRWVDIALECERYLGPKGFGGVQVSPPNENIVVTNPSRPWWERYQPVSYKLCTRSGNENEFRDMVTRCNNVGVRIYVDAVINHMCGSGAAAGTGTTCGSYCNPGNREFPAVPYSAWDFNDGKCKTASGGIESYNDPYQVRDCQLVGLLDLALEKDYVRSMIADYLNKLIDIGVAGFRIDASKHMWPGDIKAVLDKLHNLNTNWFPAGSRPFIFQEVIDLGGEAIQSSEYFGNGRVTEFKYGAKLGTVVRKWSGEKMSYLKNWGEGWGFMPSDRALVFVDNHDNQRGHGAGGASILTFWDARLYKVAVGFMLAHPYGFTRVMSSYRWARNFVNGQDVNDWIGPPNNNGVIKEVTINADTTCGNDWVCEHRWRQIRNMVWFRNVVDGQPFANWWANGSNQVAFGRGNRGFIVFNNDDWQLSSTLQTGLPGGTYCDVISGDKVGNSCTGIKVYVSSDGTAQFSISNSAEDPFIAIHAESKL
# assay_summary: α-amylase inhibition (starch–iodine method)
# cond: read-out: percentage inhibition of α-amylase
// units = %; emit number, no label

[[record]]
compound = "C[C@H]1O[C@H](O[C@H]2[C@H](O)[C@@H](O)[C@@H](O[C@H]3[C@H](O)[C@@H](O)C(O)O[C@@H]3CO)O[C@@H]2CO)[C@H](O)[C@@H](O)[C@@H]1N[C@H]1C=C(CO)[C@@H](O)[C@H](O)[C@H]1O (stereo partly shown) [Acarbose, acarbose, reference compound]"
assay_readout = "inhibition at 100 µg/mL"
reading_unit = "%"
number = 75.8

[[record]]
compound = "CC1=C[C@H]2OC3OC(=O)[C@@]4(C)CCC[C@@]3([C@@H]24)[C@H]1CC(=O)c1ccoc1"
assay_readout = "inhibition at 100 µg/mL"
reading_unit = "%"
number = 56.7


Qu. I have this compound here, `CC1=C[C@H]2OC(=O)[C@@]3(C)CCC[C@@](C)([C@@H]23)[C@H]1CC(=O)c1ccoc1` , and I need its recorded inhibition at 100 µg/mL.
Ans. 65.8

Qu. I have this compound here, CC1=CC2OC3OCC4(CCCC3(C)C24)C1CC(=O)c1ccoc1 (stereo not shown) , and I need its recorded inhibition at 100 µg/mL.
Ans. 53.9
